# System: CCRIS mutagenicity, Ames/micronucleus/aberration tests
# PROTOCOL: CCRIS mutagenicity studies
# CONDITION DETAILS: Test System: AMES SALMONELLA TYPHIMURIUM; Strain/Indicator: TA100; Metabolic Activation: NONE; Method: PREINCUBATION
# Description: The CCRIS database contains chemical records with carcinogenicity, mutagenicity, tumor promotion, and tumor inhibition test results. It was developed by the National Cancer Institute (NCI). Data are derived from studies cited in primary journals, current awareness tools, NCI reports, and other sources. Test results have been reviewed by experts in carcinogenesis and mutagenesis. CCRIS provides historical information from the years 1985 - 2011. It is no longer updated. […]
The source made the active and inactive calls. No rule for the calls is given here.
EXPERIMENTAL ENDPOINT: mutagenic call

>>> val("CC[C@H]1CN2CCc3cc(OC)c(OC)cc3[C@@H]2C[C@@H]1C[C@H]1NCCc2cc(OC)c(OC)cc21")
"inactive; negative"
>>> val("Cc1ccc(C)c(NO)c1")
"active; positive"
>>> val("CN(C)C(=S)N(C)C")
"inactive; negative"
>>> val("NNc1nncc2ncccc12")
"active; positive"
>>> val("Cc1ccc(CCC2CO2)cc1 (configuration not stated)")
"inactive; negative"
>>> val("CC(C)(c1ccc(O)cc1)c1ccc(O)cc1")
"inactive; negative"
>>> val("C=C(C)C(=O)OCCN(C)C")
"inactive; negative"

The measured values listed here are drawn from PubChem BioAssay AID1259407.
